tested on: NIH3T3; assay: Cytotoxic Profiling of Annotated Libraries Using Quantitative High-Throughput Screening (AID 1296008); conditions: Five cell lines viability, CellTiter-Glo ATP luminescence, 48-72 h; active compounds read low; note: nearly all actives have a fitted effect of over 60% in size; for max response: % is set by controls: 0 for no effect and ±100 for the full control effect
Records with an inconclusive call do not appear.
// max response lookup, one value per entry
reported-endpoint: max response (%)

>  <molecule>
C[C@H](Oc1ccc(S(C)(=O)=O)cc1C(=O)N1CCN(c2ncc(C(F)(F)F)cc2F)CC1)C(F)(F)F

>  <study-target>
NIH3T3

>  <reported>
-19.7

$$$$
>  <molecule>
C[C@@H]1C(=O)O[C@H]2[C@H](O)C34[C@H]5C[C@@H](C(C)(C)C)C36[C@@H](OC(=O)[C@@H]6O)O[C@@]4(C(=O)O5)[C@@]12O (stereo partly drawn)

>  <study-target>
NIH3T3

>  <reported>
-2.5

$$$$
>  <molecule>
Cc1cccc(C)c1OCc1cc(C(=O)N2CCC(c3ccncc3)CC2)no1

>  <study-target>
NIH3T3

>  <reported>
-17.2

$$$$
>  <molecule>
CC1=CC2C(CC1OC1OC(CO)C(O)C(O)C1O)C(C)CC(=O)C2C(C)C (stereo not drawn)

>  <study-target>
NIH3T3

>  <reported>
1.5

$$$$
>  <molecule>
CC1=C(CCC(C)CC(=O)O)[C@@]2(C)CCCC(C)(C)C2CC1=O (stereo partly drawn)

>  <study-target>
NIH3T3

>  <reported>
-3.99

$$$$
>  <molecule>
CO[C@H]1O[C@@H]2O[C@]3(C)CC[C@H]4[C@H](C)CC[C@@H]([C@H]1C)[C@@]24OO3

>  <study-target>
NIH3T3

>  <reported>
4.96

$$$$
>  <molecule>
N[C@@]1(C(=O)O)CC[C@H]2[C@H](C(=O)O)[C@H]21

>  <study-target>
NIH3T3

>  <reported>
4.48

$$$$
>  <molecule>
COC(=O)C[C@H]1[C@]2(C)C3=C(C)[C@H](c4ccoc4)C[C@H]3O[C@@H]2[C@H](OC(C)=O)C2[C@](C)(C(=O)OC)C=CC(=O)[C@@]21C (stereo partly drawn)

>  <study-target>
NIH3T3

>  <reported>
4.56

$$$$

====

system: KB-3-1; test: Cytotoxic Profiling of Annotated Libraries Using Quantitative High-Throughput Screening (AID 1296008); conditions: Five cell lines viability, CellTiter-Glo ATP luminescence, 48-72 h; note: nearly all actives have a fitted effect of over 60% in size
Records with an inconclusive call do not appear. The source made the active and inactive calls. Calls follow the shape of the dose curve; as a rule, active = well fitted inhibition curve with a large enough effect; inconclusive = small, poorly fitted or top-dose-only effect; inactive = flat fitted curve, though single readings scatter.
Possible outcomes: active, inactive

>  <molecule>
O=C(Nc1ccc(-c2ccncc2)cc1)N[C@H](CO)c1ccccc1

>  <label>
inactive

$$$$
>  <molecule>
CC(C)c1nc(-c2ccc(NC(=O)Nc3cccc(C(F)(F)F)c3)c3ccccc23)c2c(N)nccn12

>  <label>
active

$$$$
>  <molecule>
CCn1c(=O)c(-c2ccn[nH]2)cc2c(C)nc(N)nc21

>  <label>
active

$$$$
>  <molecule>
COc1cc2c(cc1OC)CC(=O)N(CCCNC[C@H]1Cc3cc(OC)c(OC)cc31)CC2

>  <label>
inactive

$$$$
>  <molecule>
CC1=CC(=O)CC(C)(C)[C@H]1/C=C/C(CO)O[C@@H]1O[C@H](CO)[C@@H](O)[C@H](O)[C@H]1O (some centres undefined)

>  <label>
inactive

$$$$
>  <molecule>
CC(=O)/C=C/[C@H]1[C@](C)(O)[C@@H](O)[C@H](OC(C)=O)C2C(C)(C)CCC[C@@]21C (some centres undefined)

>  <label>
inactive

$$$$
>  <molecule>
COC(=O)c1cc(OC)cc(OC)c1C(=O)c1c(OC)cc2c(c1O)C1CCCC(C)(O2)O1 (centres undefined)

>  <label>
inactive

$$$$
>  <molecule>
CC#CC(=O)N1CCC[C@H]1c1nc(-c2ccc(C(=O)Nc3ccccn3)cc2)c2c(N)nccn12

>  <label>
inactive

$$$$
>  <molecule>
C=C1CC2C(C)(CCC(=O)O)C(C(C)(C)O)CCC2(C)C2C(=O)OC(C)(C(=O)OC)C(=O)C12C (centres undefined)

>  <label>
inactive

$$$$

====

system: Hek293T; test: Primary qHTS to identify gynecologic anti-cancer compounds using libraries of approved drugs and bioactive compounds (AID 1345084); settings: Gynecologic cancer cell panel viability, ATPlite luminescence, 48 h, control line for the selectivity index; series mostly up to 57.5 µM; note: % is set by controls: 0 for no effect and ±100 for the full control effect; nearly all actives have a fitted effect of over 55% in size
Records with an inconclusive call do not appear. Active and inactive are the calls of the source. Calls follow the shape of the dose curve; as a rule, active = well fitted cell-killing curve with a large enough effect; inconclusive = small, poorly fitted or top-dose-only effect, or effect the other way; inactive = flat fitted curve, though single readings scatter.
Catalogue of activity change, negative = cytotoxicity readings, one per entry.

>  <compound>
CC(=O)N[C@H]1[C@H](O[C@H]2CC[C@@]3(C)C(CC[C@]4(C)C3CC=C3[C@@H]5CC(C)(C)CC[C@]5(C(=O)OC5OCC(O)C(O)C5O)CC[C@]34C)C2(C)C)O[C@H](COC2OC(C)C(O)C(OC3OC(C)C(O)C(O)C3O)C2O)[C@@H](O)[C@@H]1O (some centres undefined)

>  <activity change, negative = cytotoxicity>
4.04% [at 11.6 µM] (inactive)

$$$$
>  <compound>
CC1(C)CC[C@]2(C(=O)O)[C@H](O)C[C@]3(C)C(=CCC4[C@@]5(C)CC[C@H](O[C@@H]6O[C@H](CO[C@@H]7OC[C@H](O)[C@H](O)[C@H]7O[C@@H]7OC[C@@H](O)[C@H](O)[C@H]7O)[C@@H](O)[C@H](O)[C@H]6O[C@@H]6O[C@H](CO)[C@@H](O)[C@H](O)[C@H]6O)C(C)(C)C5CC[C@]43C)[C@@H]2C1 (some centres undefined)

>  <activity change, negative = cytotoxicity>
5.35% [at 11.6 µM] (inactive)

$$$$
>  <compound>
CC1OC(OC2C(O)C(OC3CCC4(C)C(CCC5(C)C4CC=C4C6CC(C)(COC7OC(CO)C(O)C(O)C7O)CC(O)C6(C)CCC45C)C3(C)C)OC(C(=O)O)C2O)C(O)C(O)C1OC1OCC(O)C(O)C1O (centres undefined)

>  <activity change, negative = cytotoxicity>
11.9% [at 11.6 µM] (inactive)

$$$$
>  <compound>
C/C=C(\C)C(=O)OCC1OC(OC2OC(COC(=O)/C(C)=C/C)C(OC3OC(CO)C(OC(=O)/C(C)=C/C)C(OC(=O)/C(C)=C/C)C3O)C(O)C2O)C(O)C(O)C1OC1OC(CO)C(OC(=O)/C(C)=C/C)C(OC(=O)/C(C)=C/C)C1O (centres undefined)

>  <activity change, negative = cytotoxicity>
-1.84% [at 11.6 µM] (inactive)

$$$$

====

system: NIH3T3; assay: Cytotoxic Profiling of Annotated Libraries Using Quantitative High-Throughput Screening (AID 1296008); conditions: Five cell lines viability, CellTiter-Glo ATP luminescence, 48-72 h; active compounds read low; note: nearly all actives have a fitted effect of over 60% in size; for max response: % is set by controls: 0 for no effect and ±100 for the full control effect
Records with an inconclusive call do not appear.
Measured max response, listed per entry.

>  <compound>
CC(/C=C/C1=CC2=CC(=O)C(C)(O)C(O)C2=CO1)=C\C(C)CCO (stereo unspecified)

>  <max response, %>
0.418

$$$$
>  <compound>
O=C1N=C(N2CCOCC2)CN1c1ccc(Cl)cc1

>  <max response, %>
-0.0852

$$$$
>  <compound>
COc1ccc(-c2ccc(-c3cn(C(=O)N4CCCCC4c4ccccc4)nn3)cc2)cc1 (stereo unspecified)

>  <max response, %>
1.57

$$$$
>  <compound>
CC(C)=CCC/C(C)=C/CO[C@@H]1O[C@H](CO)[C@@H](OC(=O)/C=C/c2ccc(O)cc2)[C@H](O[C@@H]2O[C@@H](C)[C@H](O)[C@@H](O)[C@H]2O)[C@H]1O

>  <max response, %>
-7.03

$$$$
>  <compound>
CC(=O)OC1CC2C3(C)CCC(OC(=O)CC(=O)O)C(C)(C)C3CCC2(C)C2(C)CCC(C3(C)CCC(=O)O3)C12 (stereo unspecified)

>  <max response, %>
2.16

$$$$
>  <compound>
C=C[C@@](C)(O)CC/C=C(\C)C(=O)O[C@@H]1[C@@H]2O[C@]2(C)[C@H]2[C@H](O[C@@H]3O[C@H](CO)[C@@H](O)[C@H](O)[C@H]3O)OC=C[C@@]12O

>  <max response, %>
1.5

$$$$
>  <compound>
COc1cc(C(=O)OC[C@H]2O[C@@H](Oc3ccccc3/C=C/C(=O)O)[C@H](O)[C@@H](O)[C@@H]2O)cc(OC)c1OC

>  <max response, %>
0.074

$$$$
>  <compound>
c1cn2cc(-c3ccc4cn[nH]c4c3)nc(Nc3ccc(N4CCOCC4)cc3)c2n1

>  <max response, %>
-11.5

$$$$
>  <compound>
C/C1=C\CCC2=C[C@@H](OC2=O)c2c(C)coc2C1

>  <max response, %>
-21.8

$$$$
>  <compound>
CC(C)CNCc1ccc(-c2ccccc2S(=O)(=O)N2CCCC2)cc1

>  <max response, %>
-1.63

$$$$
>  <compound>
C[C@@H]1C(=O)O[C@H]2C[C@]34[C@H]5C[C@@H](C(C)(C)C)[C@]36[C@@H](OC(=O)[C@H]6O)O[C@]4(C(=O)O5)[C@]21O

>  <max response, %>
3.92

$$$$
>  <compound>
OC[C@@]1(O)CO[C@@H](OC[C@H]2O[C@@H](Oc3c[nH]c4ccccc34)[C@H](O)[C@@H](O)[C@@H]2O)[C@@H]1O

>  <max response, %>
1.55

$$$$
>  <compound>
CCCN1CCN(c2ccc(C(=O)NC3(C(=O)NCC#N)CCCCC3)cc2)CC1

>  <max response, %>
1.62

$$$$
>  <compound>
C=C1C(=O)O[C@H]2[C@H]1CC/C(C)=C/CC[C@@]1(C)O[C@@H]21

>  <max response, %>
0.479

$$$$
>  <compound>
O=S(=O)(NC1CCC(c2cc(F)ccc2F)(S(=O)(=O)c2ccc(Cl)cc2)CC1)C(F)(F)F (stereo unspecified)

>  <max response, %>
-17.1

$$$$
>  <compound>
CC(=O)N[C@H]1[C@H](O[C@H]2CC[C@@]3(C)C(CC[C@]4(C)C3CC=C3C5CC(C)(C)CC[C@]5(C(=O)O)[C@H](O)C[C@]34C)C2(C)C)O[C@H](CO[C@@H]2OC[C@H](O)[C@H](O)[C@H]2O[C@@H]2OC[C@@H](O)[C@H](O)[C@H]2O)[C@@H](O)[C@@H]1O (stereo partly specified)

>  <max response, %>
-13.2

$$$$
>  <compound>
COC(=O)c1c(C)cc(OC(=O)c2c(C)cc(OC)cc2OC)cc1O[C@@H]1O[C@H](CO)[C@@H](O)[C@H](O)[C@H]1O

>  <max response, %>
-1.71

$$$$
>  <compound>
O=C(O)c1cccc(S(=O)(=O)N2CCc3ccccc3C2)c1

>  <max response, %>
-16.4

$$$$
>  <compound>
CC(O)CCC1C(CO[C@@H]2O[C@H](CO)[C@@H](O)[C@H](O)[C@H]2O)CC(O)CC1(C)C (stereo partly specified)

>  <max response, %>
-8.75

$$$$
>  <compound>
OC[C@H]1O[C@@H](Oc2ccccc2)[C@H](O)[C@@H](O)[C@@H]1O

>  <max response, %>
-2.04

$$$$
>  <compound>
O=C1NC(Cc2ccccc2)C(=O)N2CCCC12 (stereo unspecified)

>  <max response, %>
-0.863

$$$$
>  <compound>
C=C(C(=O)O)C1CCC2(C)CCC(O)C(C)(O)C2C1 (stereo unspecified)

>  <max response, %>
-18.2

$$$$
>  <compound>
CNS(=O)(=O)CC1CCC(N(C)c2ncnc3[nH]ccc23)CC1 (stereo unspecified)

>  <max response, %>
-10.7

$$$$
>  <compound>
COc1ccc(-c2nc(-c3ccc(-c4cccc(Cl)c4)o3)[nH]c2-c2ccc(OC)cc2)cc1

>  <max response, %>
-19.3

$$$$
>  <compound>
O=C(OCC1=CC(O)C2C=CO[C@@H](O[C@@H]3O[C@H](CO)[C@@H](O)[C@H](O)[C@H]3O)C12)c1ccccc1 (stereo partly specified)

>  <max response, %>
1.21

$$$$
>  <compound>
O=C(O)/C=C/c1cc2c(cc1O[C@@H]1O[C@H](CO)[C@@H](O)[C@H](O)[C@H]1O)OCO2

>  <max response, %>
4.44

$$$$
>  <compound>
C[C@@H]1O[C@@H](O[C@@H]2[C@@H](O[C@@H]3O[C@@H](C)[C@H](O[C@@H]4OC[C@H](O)[C@H](O[C@@H]5OC[C@@H](O)[C@H](O)[C@H]5O)[C@H]4O)[C@@H](O[C@@H]4OC[C@](O)(CO)[C@H]4O)[C@H]3O)[C@H](OC(=O)[C@]34CCC(C)(C)C[C@H]3C3=CCC5[C@@]6(C)C[C@H](O)[C@H](O[C@@H]7O[C@H](CO[C@@H]8OC[C@H](O)[C@H](O)[C@H]8O)[C@@H](O)[C@H](O)[C@H]7O)C(C)(C)C6CC[C@@]5(C)[C@]3(C)C[C@H]4O)OC[C@H]2O)[C@H](O)[C@H](O)[C@H]1O (stereo partly specified)

>  <max response, %>
0.953

$$$$
>  <compound>
O=S(=O)(c1ccc(S(=O)(=O)n2cnc3ccccc32)cc1)N1CCCCCC1

>  <max response, %>
-4.79

$$$$
>  <compound>
NC(=O)c1cccc(-c2cc(OC(=O)NC3CCCCC3)ccc2O)c1

>  <max response, %>
-3.22

$$$$
>  <compound>
C/C(=C\CCC(C)CCO)C(=O)O[C@@H]1[C@@H](O)[C@H](OC2OC=C(C(=O)O)C3CCC(C)(O)C23)O[C@H](CO)[C@H]1O (stereo partly specified)

>  <max response, %>
-17.6

$$$$
>  <compound>
CC/C=C\CC1C(=O)C=CC1(CCCCCCCC(=O)O)OC(C)=O (stereo unspecified)

>  <max response, %>
4.26

$$$$

Each recorded value in this set is attributed to PubChem BioAssay (NCATS).
